Data origin, for the record: patent US20260365653A1

EXPERIMENTAL SYSTEM: mutEGFR (D770_N771insNPG, T790) (Homo sapiens, UniProt P00533, INS770NPG/T790M)
Construct: exact insNPG construct not described; in-house EGFR proteins were N-terminal GST fusions from baculovirus/insect cells (borders R669-A1210 given only for WT, insSVD, insASV)
Sequence (P00533 with tags, fused parts or gaps INS770NPG/T790M limits assumed): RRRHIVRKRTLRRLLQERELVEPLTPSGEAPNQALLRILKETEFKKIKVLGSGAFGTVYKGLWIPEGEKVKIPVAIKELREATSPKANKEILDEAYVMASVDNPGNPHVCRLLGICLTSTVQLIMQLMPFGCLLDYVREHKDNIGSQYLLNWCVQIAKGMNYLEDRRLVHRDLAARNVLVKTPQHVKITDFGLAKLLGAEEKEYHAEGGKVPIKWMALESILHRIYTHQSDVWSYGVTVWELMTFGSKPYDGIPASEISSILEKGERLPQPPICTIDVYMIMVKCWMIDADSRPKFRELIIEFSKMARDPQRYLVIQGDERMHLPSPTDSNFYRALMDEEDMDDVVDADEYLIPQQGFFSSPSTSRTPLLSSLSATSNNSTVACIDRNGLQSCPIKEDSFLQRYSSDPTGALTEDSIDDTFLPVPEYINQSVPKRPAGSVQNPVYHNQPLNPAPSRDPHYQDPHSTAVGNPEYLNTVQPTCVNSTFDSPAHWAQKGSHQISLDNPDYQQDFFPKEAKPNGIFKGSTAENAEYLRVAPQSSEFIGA
PROTOCOL: mutEGFR (D770_N771insNPG, T790) kinase assay
Type: biochemical
CONDITION LABEL: Table 2a, D770_N771insNPG
pIC50: −log10 of the molar value.
OBSERVED PROPERTY: pIC50

[[record]]
molecule = "C=CC(=O)N1CCn2nc(-c3ccc(C(F)(F)F)cc3F)c(-c3ccnc4[nH]cc(C)c34)c2C1 [Example 174]"
observed_property = "pIC50"
numeric_result = 5.67

[[record]]
molecule = "CN(C)C/C=C/C(=O)N1CCn2nc(-c3ccc(Cl)c(F)c3)c(-c3ccncc3)c2C1 [Example 25]"
observed_property = "pIC50"
numeric_result = 8.67

[[record]]
molecule = "COc1ccccc1-c1nn2c(c1-c1ccncc1)CN(C(=O)/C=C/CN(C)C)CC2 [Example 28]"
observed_property = "pIC50"
numeric_result = 7.45

[[record]]
molecule = "CCN(C)C/C=C/C(=O)N1CCn2nc(-c3ccc(F)cc3)c(-c3ccncc3)c2C1 [Example 71]"
observed_property = "pIC50"
numeric_result = 8.51


I = Cc1c[nH]c2nccc(-c3c(-c4ccc(C(F)(F)F)cc4)nn4c3C(C)N(C(=O)/C=C/CN(C)C)CC4)c12 (single isomer, unassigned; isomer 1) [Example 265]
II = C=CC(=O)N1CCn2nc(-c3ccc(C(F)(F)F)c(F)c3)c(-c3ccncc3)c2C1 [Example 134]
III = CN(C)C/C=C/C(=O)N1CCn2nc(-c3ccc(Cl)cc3CO)c(-c3ccncc3)c2C1 [Example 35]
Ask | Descending sort on pIC50 required. Reply with the item labels sorted in the order that was asked for.
Reply | III, II, I

---

EXPERIMENTAL SYSTEM: mutEGFR (D770_N771insNPG, T790) (Homo sapiens, UniProt P00533, INS770NPG/T790M)
Construct: exact insNPG construct not described; in-house EGFR proteins were N-terminal GST fusions from baculovirus/insect cells (borders R669-A1210 given only for WT, insSVD, insASV)
PROTOCOL: mutEGFR (D770_N771insNPG, T790) kinase assay
Assay type: biochemical
CONDITION LABEL: Table 2a, D770_N771insNPG
pIC50: −log10 of the molar value.
OBSERVED PROPERTY: pIC50

P = CN(C)C/C=C/C(=O)N1CCn2nc(-c3ccc(F)cc3)c(-c3ccncc3)c2C1 [Example 15]
Q = COc1ccc(-c2nn3c(c2-c2ccncc2)CN(C(=O)/C=C/CN(C)C)CC3)cc1F [Example 31]
R = C=CC(=O)N1CCn2nc(-c3ccc(F)cc3)c(-c3ccnc4[nH]ccc34)c2C1C (single isomer, unassigned; isomer 2) [Example 261]
S = C=CC(=O)N1CCn2nc(-c3ccc(F)cc3)c(-c3ccnc(OC)c3)c2C1 [Example 11]
Ask | Sort by pIC50, descending. Sort the labels as requested; that list is your answer.
Reply | P, R, Q, S
(P: 8.97, R: 8.14, Q: 7.73, S: 7.36)
